Target sequence: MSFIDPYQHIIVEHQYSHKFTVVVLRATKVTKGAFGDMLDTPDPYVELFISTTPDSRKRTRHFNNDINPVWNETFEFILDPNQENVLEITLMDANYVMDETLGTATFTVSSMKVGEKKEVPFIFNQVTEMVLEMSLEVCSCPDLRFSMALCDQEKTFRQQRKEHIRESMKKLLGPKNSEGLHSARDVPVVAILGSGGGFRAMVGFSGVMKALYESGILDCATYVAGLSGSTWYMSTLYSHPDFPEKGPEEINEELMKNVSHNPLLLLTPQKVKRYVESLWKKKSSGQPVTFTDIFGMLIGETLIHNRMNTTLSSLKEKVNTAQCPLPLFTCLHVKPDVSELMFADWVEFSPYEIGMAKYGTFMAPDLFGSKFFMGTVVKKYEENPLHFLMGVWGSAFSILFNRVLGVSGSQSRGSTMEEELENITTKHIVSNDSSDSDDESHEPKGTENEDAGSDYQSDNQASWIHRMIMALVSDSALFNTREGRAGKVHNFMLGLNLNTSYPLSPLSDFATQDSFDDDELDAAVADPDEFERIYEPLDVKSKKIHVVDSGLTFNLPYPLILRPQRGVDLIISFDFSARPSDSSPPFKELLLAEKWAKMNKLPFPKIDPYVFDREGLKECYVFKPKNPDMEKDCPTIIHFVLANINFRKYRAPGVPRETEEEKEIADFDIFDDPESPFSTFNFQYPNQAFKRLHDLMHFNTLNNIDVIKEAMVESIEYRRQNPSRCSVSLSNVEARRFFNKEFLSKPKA
pIC50: −log10 of the molar value.
READOUT_LABEL: pIC50

* O=C1NC(=O)C(=Cc2ccc(NC(=O)[C@@H]3C[C@H](SCc4ccc(-c5ccccc5)cc4)CN3C(=O)c3ccccc3)cc2)S1 | 5.48
* O=C1NC(=S)SC1=Cc1ccc(NC(=O)[C@@H]2C[C@H](SCc3ccccc3)CN2C(=O)c2cccnc2)cc1 | 5.00
* O=C1NC(=S)S/C1=C\c1ccc(NC(=O)[C@@H]2C[C@H](SCc3ccccc3)CN2S(=O)(=O)c2cccc3cccnc23)cc1 | 5.20
* O=C1C=CC(=O)C(CCCCCCC(=O)N2C[C@@H](OC(c3ccccc3)c3ccccc3)C[C@H]2CNC(=O)c2ccc(/C=C3\SC(=O)NC3=O)cc2)=C1 | 5.31
* O=C1NC(=O)C(=Cc2ccc(NC(=O)[C@@H]3C[C@H](SCc4ccccc4)CN3C(=O)c3ccccc3)cc2)S1 | 5.28
* CC(C)S(=O)(=O)N1C[C@@H](SCc2ccccc2)C[C@H]1C(=O)Nc1ccc(C=C2SC(=S)NC2=O)cc1 | 5.19

A. CS[C@H]1C[C@@H](C(=O)Nc2ccc(/C=C3\SC(=S)NC3=O)cc2)N(S(=O)(=O)c2ccc(Br)cc2)C1
B. CCCCNC(=O)N1C[C@@H](SCc2ccccc2)C[C@H]1C(=O)Nc1ccc(C=C2SC(=S)NC2=O)cc1
C. O=C1NC(=O)C(=C(CO)c2ccc(NC(=O)[C@@H]3CC(OC(c4ccccc4)c4ccccc4)CN3C(=O)c3ccccc3)cc2)S1 (stereo partly drawn)
Request: Hi! Can you put these in order of pIC50, lowest number first? Write the labels, ordered according to the request.
Response: C, B, A
(C: 4.59, B: 4.80, A: 5.20)

I. CC(=O)Oc1ccc(O)cc1CCCCCCC(=O)N1C[C@@H](OC(c2ccccc2)c2ccccc2)C[C@H]1CNC(=O)c1ccc(/C=C2\SC(=O)NC2=O)cc1
II. O=C1NC(=O)/C(=C/c2ccc(NC(=O)[C@@H]3C[C@H](SCc4ccccc4)CN3S(=O)(=O)c3ccc(-c4ccccc4)cc3)cc2)S1
Request: Please state the entry with greater pIC50 among I and II . Refer to your chosen entry by its label in the reply.
Response: I
(I: 5.37, II: 4.85)
